Biological target: recombinant human XIAP-BIR3 protein (Homo sapiens)
Construct: recombinant human XIAP-BIR3 protein; purchased Reaction biology APT-11-374
Assay: Recombinant human XIAP-BIR3 biochemical assay (HTRF, peptide displacement)
Details: 3.7 nM XIAP-BIR3, 7.6 nM AbuRPF-K(5-Fam)-NH2 peptide, read-out: Protein binding IC50 (nM) XIAP
Measured IC50, listed per entry for reference.
Your answer should be a plain number; it is taken to be in nM.

Below are worked cases with known answers.
COC[C@H]1COc2ncc(Cc3ccc(F)cc3)cc2N1C(=O)CN1C[C@@H](C)NC[C@@H]1CN1CCOC[C@H]1C: 46
COCCOCCNC(=O)c1nc2c(cc1Cc1ccc(F)cc1)N(C(=O)CN1C[C@@H](C)NC[C@@H]1CN1[C@H](C)COC[C@H]1C)[C@@H](C)CO2: 8.2
C[C@@H]1CN(CC(=O)N2c3cc(Cc4ccc(F)cc4)cnc3OC[C@@H]2C2CC2)[C@@H](CN2CCOC[C@H]2C)CN1: 16
C[C@@H]1CN(CC(=O)N2CCOc3nc(C(F)(F)F)c(Cc4ccc(F)cc4)cc32)[C@@H](CN2CCOC[C@H]2C)CN1: 99
CC(C)[C@H]1COc2ncc(Cc3ccc(F)cc3)cc2N1C(=O)CN1C[C@@H](C)NC[C@@H]1CN1[C@H](C)COC[C@H]1C: 63

Requested read-out IC50, target or system recombinant human XIAP-BIR3 protein (Homo sapiens), entry CC1CN(C(=O)CN2C[C@@H](C)NC[C@@H]2CN2CCOC[C@H]2C)c2cc(Cc3ccc(F)cc3)cnc2O1 (stereo partly drawn)
264

----------
Target: recombinant human XIAP-BIR3 protein (Homo sapiens, UniProt P98170)
Construct: recombinant human XIAP-BIR3 protein; purchased Reaction biology APT-11-374
Sequence (P98170 241-356 limits assumed): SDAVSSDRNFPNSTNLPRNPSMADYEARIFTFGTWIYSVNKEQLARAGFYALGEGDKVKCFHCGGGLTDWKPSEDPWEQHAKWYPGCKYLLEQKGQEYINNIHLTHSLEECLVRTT
Experiment: Recombinant human XIAP-BIR3 biochemical assay (HTRF, peptide displacement)
Settings: 3.7 nM XIAP-BIR3, 7.6 nM AbuRPF-K(5-Fam)-NH2 peptide, read-out: Protein binding IC50 (nM) XIAP
Measured IC50, listed per entry for reference.
Your answer should be a plain number; it is taken to be in nM.

COC[C@H]1COc2ncc(Cc3ccc(F)cc3)cc2N1C(=O)CN1C[C@@H](C)NC[C@@H]1CN1[C@H](C)COC[C@H]1C: 23
C[C@@H]1CN(CC(=O)N2c3cc(Cc4ccc(F)cc4)c(CO)nc3OC[C@@H]2C)[C@@H](CN2CCOC[C@H]2C)CN1: 6
C[C@@H]1CN(CC(=O)N2c3cc(Cc4ccc(F)cc4)c(C(=O)NCCN4CCN(C)CC4)nc3OC[C@@H]2C)[C@@H](CN2[C@H](C)COC[C@H]2C)CN1: 12.4
C[C@@H]1CN(CC(=O)N2c3cc(Cc4ccc(F)cc4)cnc3OC[C@@H]2C2CCCCC2)[C@@H](CN2CCOC[C@H]2C)CN1: 25

Request the reported IC50 associated with C[C@@H]1CN(CC(=O)N2c3cc(Cc4ccc(F)cc4)c(CO)nc3OC[C@@H]2C)[C@@H](CN2CCOCC2(C)C)CN1
12

Request the reported IC50 associated with C[C@@H]1CN(CC(=O)N2c3cc(Cc4ccc(F)cc4)c(CN4CC(O)C4)nc3OC[C@@H]2C)[C@@H](CN2[C@H](C)COC[C@H]2C)CN1
7.7
